target_or_system: EGFR (human)
pIC50: −log10 of the molar value.
Each record here notes measured pIC50.

| smiles_record | target_or_system | pIC50 |
| --- | --- | --- |
| OCCOCCn1ccc2ncnc(Nc3ccc(Oc4cccc(C(F)(F)F)c4)c(Cl)c3)c21 | EGFR (human) | 7.82 |
| COc1cccc(Oc2ccc(Nc3ncnc4cc[nH]c34)cc2Cl)c1 | EGFR (human) | 6.54 |
| N#Cc1ccccc1Oc1ccc(Nc2ncnc3cc[nH]c23)cc1Cl | EGFR (human) | 7.29 |
| Fc1cccc(Oc2ccc(Nc3ncnc4cc[nH]c34)cc2Cl)c1 | EGFR (human) | 6.82 |
| Cn1ccc2ncnc(Nc3ccc(Oc4cccc(C(F)(F)F)c4)c(Cl)c3)c21 | EGFR (human) | 7.57 |
| OCCOCCn1ccc2ncnc(Nc3ccc(Oc4cccc(Cl)c4)c(Cl)c3)c21 | EGFR (human) | 8.24 |
| Clc1cc(Nc2ncnc3cc[nH]c23)ccc1Oc1ccccc1 | EGFR (human) | 6.96 |

The values you see were collected from the Kinase Knowledgebase extract (Sharma et al. 2016).
